Give measured IC50 for each item. Keep answers brief.
Test system: MMP1 expression by activated synovial fibroblasts (RASFs)
Experiment: MMP assay: MMP1 expression by RASFs triggered with TNF-α (MMP1 ELISA)
Assay type: cell-based
Conditions: Fibroblast, 48 h, TNF-α trigger 10 ng/mL, semi-quantitative score, read-out: REDUCTION MMP1/TNFa

Hi team, please reply with IC50 for each item in this list.
1. CCC(CC)N1CCN(c2ccc(Nc3ccc(-c4cc[nH]c(=O)c4)n4ncnc34)cc2)CC1 [Example 21]
2. CCN1CCN(c2ccc(Nc3ccc(-c4ccnc(OC)c4)n4ncnc34)cc2)CC1 [Example 26]
3. NC(=O)c1cccc(-c2ccc(Nc3ccc(N4CCOCC4)cc3)c3ncnn23)c1 [Example 43]

1. > 10 µM
2. 1 to 5 µM
3. > 10 µM

Hi team, please reply with IC50 for each item in this list.
1. C[C@@H]1CN(c2ccc(Nc3ccc(-c4cc[nH]c(=O)c4)n4ncnc34)cc2)C[C@H](C)N1C [Example 57]
2. C[C@@H]1CN(c2ccc(Nc3ccc(-c4cc[nH]c(=O)c4)n4ncnc34)cc2F)C[C@H](C)N1C [Example 9]
3. CC(C)N1CCN(c2ccc(Nc3ccc(-c4ccc5cc[nH]c5c4)n4ncnc34)cc2)CC1 [Example 53]
4. C[C@@H]1CN(C)[C@@H](C)CN1c1ccc(Nc2ccc(-c3cc[nH]c(=O)c3)n3ncnc23)cc1F (relative stereo) [Example 11]

1. 1 to 5 µM
2. 1 to 5 µM
3. > 10 µM
4. 1 to 5 µM

----------
Molecular target: TAK1-TAB1 fusion protein (Homo sapiens, UniProt O43318)
Sequence (O43318 with tags, fused parts or gaps limits assumed): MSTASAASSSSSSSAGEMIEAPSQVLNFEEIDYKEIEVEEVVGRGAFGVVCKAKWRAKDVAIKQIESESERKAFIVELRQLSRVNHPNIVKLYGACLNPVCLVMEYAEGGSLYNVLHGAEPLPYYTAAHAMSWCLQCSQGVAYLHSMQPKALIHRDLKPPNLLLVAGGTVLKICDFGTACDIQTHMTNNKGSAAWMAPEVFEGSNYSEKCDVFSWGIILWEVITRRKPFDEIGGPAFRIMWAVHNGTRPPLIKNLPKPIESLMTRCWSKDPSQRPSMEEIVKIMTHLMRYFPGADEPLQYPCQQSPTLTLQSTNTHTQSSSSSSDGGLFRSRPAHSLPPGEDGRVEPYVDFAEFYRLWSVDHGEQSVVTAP
Test: In vitro TAK1 kinase assay
Conditions: casein substrate, [33P]-γ-ATP, 90 minutes at 30° C., semi-quantitative score, read-out: POTENCY TAK1 (MAP3K7)
pIC50: −log10 of the molar value.
Give measured pIC50 for each item. Keep answers brief.

Given the entry `CCCN1CCN(c2ccc(Nc3ccc(-c4cc[nH]c(=O)c4)n4ncnc34)cc2)CC1` , report its measured pIC50. > 6.30

Given the entry `NC(=O)c1ccc(-c2ccc(Nc3ccc(N4CCN(C5CCC5)CC4)cc3)c3ncnn23)cc1` , report its measured pIC50. > 6.30

Given the entry `CCN1CCN(c2ccc(Nc3ccc(-c4ccc(C(N)=O)cc4)n4ncnc34)cc2)CC1` , report its measured pIC50. > 6.30

Hi team, please reply with pIC50 for each item in this list.
1. NC(=O)c1ccc(-c2ccc(Nc3ccc(N4CCN(C5CC5)CC4)cc3)c3ncnn23)cc1
2. COc1ncc(-c2ccc(Nc3ccc(N4CCN(C(C)C)CC4)cc3)c3ncnn23)c(OC)n1
3. CN1CCN(c2ccc(Nc3ccc(-c4cc[nH]c(=O)c4)n4ncnc34)cc2)CC1 [Example 4]
4. CC(C)N1CCN(c2ccc(Nc3ccc(-c4cccc5[nH]ccc45)n4ncnc34)cc2)CC1
5. CC(C)N1CCN(c2ccc(Nc3ccc(-c4ccc(F)c(C(N)=O)c4)n4ncnc34)cc2)CC1
6. NC(=O)c1cc(-c2ccc(Nc3ccc(N4CCOCC4)cc3)c3ncnn23)ccc1F

["5.30 to 6.00", "< 5.00", "6.00 to 6.30", "5.30 to 6.00", "< 5.00", "< 5.00"]

----------
Test system: MMP1 expression by activated synovial fibroblasts (RASFs)
Assay: MMP assay: MMP1 expression by RASFs triggered with TNF-α (MMP1 ELISA)
Type: cell-based
Details: Fibroblast, 48 h, TNF-α trigger 10 ng/mL, semi-quantitative score, read-out: REDUCTION MMP1/TNFa
Reported Metric: IC50

As a guide, the following entries are already answered.
Given the entry COc1cc(-c2ccc(Nc3ccc(N4CCN(C5CCC5)CC4)cc3)c3ncnn23)ccn1 [Example 31] , report its measured IC50. 5 to 10 µM

Given the entry CC(C)N1CCN(c2ccc(Nc3ccc(-c4ccc(F)c(C(N)=O)c4)n4ncnc34)cc2)CC1 [Example 46] , report its measured IC50. > 10 µM

Given the entry CCC(CC)N1CCN(c2ccc(Nc3ccc(-c4ccnc(OC)c4)n4ncnc34)cc2)CC1 [Example 28] , report its measured IC50. 1 to 5 µM

Hi team, please reply with IC50 for each item in this list.
1. c1nc2c(Nc3ccc(N4CCN(C5CCC5)CC4)cc3)ccc(-c3cn[nH]c3)n2n1 [Example 35]
2. O=c1cc(-c2ccc(Nc3ccc(N4CCN(C5CCC5)CC4)cc3)c3ncnn23)cc[nH]1 [Example 24]
3. O=c1cc(-c2ccc(Nc3ccc(N4CCNCC4)cc3)c3ncnn23)cc[nH]1 [Example 33]

> 10 µM
1 to 5 µM
1 to 5 µM
